- ASSAY: label from the status in PepcDB records
PROPERTY MEASURED: protein production

Below are worked cases with known answers.
SEQUENCE CODE	protein production
SEPGEELEEEGSPGGREDGFTAEHLAAEAMAADMDPWLVFDARTTPATELDAWLAKYPPSQVTRYGDPGSPNSEPVGWIAVYGQGYSPNSGDVQGLQAAWEALQTSGRPITPGTLRQLAITHHVLSGKWLMHLAPGFKLDHAWAGIARAVVEGRLQVAKVSPRAKEGGRQVICVYTDDFTDRLGVLEADSAIRAAGIKCLLTYKPDVYTYLGIYRANRWHLCPTLYESRFQLGGSARGSRVLDRANNVELT	not failed
MPKTLIILAHPNISQSTVHKHWSDAVRQHTDRFTVHELYAVYPQGKIDVAAEQKLIETHDSLVWQFPIYWFNCPPLLKQWLDEVLTYGWAYGSKGKALKGRKIALAVSLGAPAADYRADGAVGCSVAEVLRPFELTAKYCNADYRPPFTFHTIDSNAGYSEAARQEVERSARDYLAWLDALQQTLEHHHHHH	not failed
MGHHHHHHSHPAEYNISPETRRAQAERLAIRAQLKREYLLQYNDPNRRGLIENPALLRWAYARTINVYPNFRPTPKNSLMGALCGFGPLIFIYYIIKTERDRKEKLIQEGKLDRTFHLSY	failed
METTQKDELSSFLSVLPPVDFCCVYGSTLHPNNQDKSKMVDYILGVSDPIKWHSANLKMNSDHYASWMVHLGGARLITNVADKVGVGVHFNPFVNWNDRKLKYGVVRMHDLVQDILDWKRFYLSGRLQKPVHMLVDNLDIEDVNSVNKRAAISAALLLLPSKFTEEDLYAKICSLSYMGDLRMFFAEDTNKVNKIVKGQFDLFQSMYKPFLEECETKNLLRFSSAEASHTKLVQDSSLSATRSLVSSLPASVRSQMGKSLGEKKFVSETGRVMGEVCISSREEAAKCMEKVMRRRVMVSSGRQAVSGFLAAGAINATMYLSQKMRKAWNSRA	failed
NGKLFLVGTPIGNLKDITLRALETLQNCDVIAAEDTRQSLKLLNHFDIKKPLISYHKFNENNRSSELMDMVREGKKVALVTDAGMPGISDPGSVIVEKFIENNLEFEVIPG	not failed

Next up:
Per the record, `MTNLDEFLEELSSIESHSQKIVKIDEHLKKLDEETKEDEDEDAAKIIQDRSTAREAEIALLMDLRQNFLPPPSMSSSSLQPPSSSTLAPSSSSSLQPPAPLIDFFRSSVSYSHQPPSSSTLATSSSPSLQPPSMSSSSLQPPASLREFFTSSVSYSHQPSSSSTLATSSFFPSSMPYSVRPPDSSDRPSLREFFPSSPSSSIQPPESSSSKRARLSNIFPSPLSSSPSPFVNPFLRPQAQEPTIPNFINPIPQISPGLPALFPNPNPNPNPNPIPNPIRNPDLVWTNRLQLVFDDAVVRLGGLFSATPKAINELISEEGLTGDQIRSHLQVLRDRQKAIADKLALE` has protein production of failed

====

- ASSAY: label from the status in PepcDB records
PROPERTY MEASURED: protein production

SEQUENCE CODE	PROPERTY MEASURED	RESULT VALUE
KVWKPGDECFALYWEDNKFYRAEVEALHSSGMTAVVKFTDYGNYEEVLLSNIKPVQTEAWVRDPN	protein production	not failed
PLNRLGHKIYQHSGKWLQETAAEKLNQRDQLINPGHAQVLILGMGRIGTGAYDELRARYGKISLGIEIREEAAQQHRSEGRNVISGDATDPDFWERILDTGHVKLVLLAMPHHQGNQTALEQLQRRNYKGQIAAIAEYPDQLEGLLESGVDAAFNIYSEAGSGFARHVCKQLEPQFTSIK	protein production	not failed
MKFLTVSDDMNFLRQVNTLVAGKGDMDSVIIGEGDAKGLGSKVLYRAKKGTPFDAVSEGILKIAGNYDYIAIGSTEVGREIAGYLSFKTGFYTATEIFSLEFNGQKAHTKRFFYGGKTVIEEESDARILTVAPGVIEAKDLGTTPEIRDLEIGQSRIKITKFV	protein production	not failed
MQVIKQKLTATCAQLTGYLHQPDTNAHQTNLPAIIIVPGGSYTHIPVAQAESLAMAFAGHGYQAFYLEYTLLTDQQPLGLAPVLDLGRAVNLLRQHAAEWHIDPQQITPAGFSVGGHIVALYNDYWATRVATELNVTPAMLKPNNVVLGYPVISPLLGFPKDDATLATWTPTPNELAADQHVNSDNQPTFIWTTADDPIVPATNTLAYATALATAKIPYELHVFKHGPHGLALANAQTAWKPDANQPHVAHWLTLALEWLADNR	protein production	not failed

====

- ASSAY: label from the status in PepcDB records
PROPERTY MEASURED: protein production

Below are worked cases with known answers.
SEQUENCE CODE	protein production
MDRNGANMLDGRVESDAKGSFRKDYTKMENNNNGANISDGIYRIIRSFKSFSHFFIRYEEETKEREAEMEIGFPTDVKHLSHIGVDGTMTTFDNTSSSFPFSGFHLTGTVV	failed
MPYINELRNHKFLIILVDLLCILAAYIAAFYIRYQGFPAKNWESFVSLLPWILLIGLFFISVYELYALDRKNTLWDILVKIFVAVTFMAFLTMAASYFFREFALPRSILFIASVFTIVLLATWKYVFLKLTRRNVVGKVLFIGDDDNTERMISKIKHPMLKGTSIKQVHPNIPMDKINHYMRHADYIILCTSIQKEKKSMIIYHAMECNKLVYVVPTLYELLLQRSSVTPLDDTMLMSVKPFGLTWDQAFIKRAFDVVTSAFTLICTSPLLPISCNFN	failed
MSINDVAKLFGSAWIVMMADVDAASILTGVADGQTYGYRLIILLLVLTLPLYIVQEAAGRVGAVNNGKGLGTLLREKFSQKFALTAAIPMFLVDLFTYVVEYVGIAVGSLMIGVPVYISLPLFFVIHLSIVLTRTYEKMEKTLLGISFFLVIAFIVQAFLRGVSPNQQLLYFSASKSFLFFLAANIGAVVMPFMIFYQASATAYKYNNSALSKDVKVKWSSMETFIGALVSELLMVAIEISTTGLSSSIDPLNYREMSYALSAISGIYSPYVFGIGLICGGLLALIVESLGSAWGTLEALNKHNHRNTTLLYVFESVPAIIIASIFSQNYDQIVNTVLSLMSVTPIIVFIPAFFVGLLVGDEKIMGKYSYSRRRMVIYWITVVILLISGIMSLL	failed
MVLTSGAGASLVLLNTFSEIYMRISTRVIGGALIATLLTQLTACGTIFYPDRRGQIGGKIDPVVAAMDAIGILFYVIPGLIAFGIDFATGAIYYPGGRTAQVDPAKLQEAVSPDGKVDNLKLQAILESELGQRLPLNDPRLIQHRGSIEQLASLGLVPAA	failed
MLILAIPGYIYYHQQQEQAANQQLGQILPVYEQGNFQQALDGTGDRAGLLAIADDYGGTDAGNLATFYAANALYQRDEYDRALTYYQRFEKEKDFIGASAYAAQAAIQETRGSFERAGGLYEQAASQYQNKLTAPRYLLNAGQAYEEAGQYEAAIGVYERIQEEYPDSEQASNAERYLARAKVHQGSTSSS	failed

Per the record, `MDSRKALDGLAVTLMIILCLTWGLQQVALKATSAEIAPLMQIAIRSGISALLVGIMMAVRGERLSLAGGMWRPGLAVGFLFALEYLLVGEGLRHTTASHMVIFLYTAPVFAAIGLHLKLRSERLRPVQWFGIALAFGGIVVSFYGRGGHTASLSVASVIWGDVLGLAAGMAWGMTTVVIRTSRLAACSATQTLLFQLLGAFILLLPAAAVLDQTYFNPTRLGWACLIFQTLIVSFASFLVWFWLLRHYVASRLGVLSFMTPLFGVALGAWLLNEPLERGFLAGALLVLTGIILVSGHGWLRQLGNGAGAAVQEQAREPDLP` has protein production of failed

Per the record, `MNPAYRKAMLESEIQKLLMEALQQLRDPRLKKDFVTFSRVELSKDKRYADVYVSFLGTPEERKETVEILNRAKGFFRTFIAKNLRLYVAPEIRFYEDKGIEASVKVHQLLVQLGYDPLKDKEKKEEDKEEE` has protein production of not failed

Per the record, `MTALRQDIDPNGLLEYSVVYTDRALNHMSKAFQEVMNDLLSNLKTVYNAEAAVIIPGSGTYGMEAVARQLTIDEDCLIIRNGWFSYRWTQILEKGKFAKSSTVLTAERTEDTEAPKPFAPVDIETAVAKIKEDKSAIVYAPHVETSSGIILSEEYIKALSEAVHSVGGLLVIDCIASGCVWLDMKELGIDVLISAPQKGWSSTPCAGLVMLSAAAIKKVESTESNCFSLDLKQWLTIMRAYENGGHAYHATMPTDSLRQFRDAILEAKEIGFDILRDAQWELGNRVRKVLTDKGIESVAAEGFEAPGVVVSYTERDDMHKGSAFAEAGLQIAAGVPLKVGEPDNFKTFRLGLFGLDKLTDIDGTVERFEKALDEVLAK` has protein production of not failed

Per the record, `MAARRFTGDELAALLPHAGDAFFLRDAEVDGWRASGGASWRSDHPHLRGHFPGEPIVPGVYLLEAAAQLAGVAIRCGAEDWTPETLGVLAGVRKSYFHRFVRPGERVDYALDVKPAPGSAMYAVSGLGKVDGDKVLTVELTIAGVRRLEHHHHHH` has protein production of failed

Per the record, `MAVSSNGGAIKAVIYDCDGVMFDSFEANLAFYQRIMEMMGRPRLSRDNEEQMRILHTYANREVLAHFFPSPGDWEEAVRCAGAIDYRELVPLMIMEEGFREALDTLKGRVGLGVCTNRSTSMDMVLRLFSLDSYFSIVMTASRVTNPKPHPEPLLKVLEHFGIGPREALFVGDSEVDRLSAEAAGVPFVAYKAPLPAAYRMEHHREIIDLLG` has protein production of not failed

Per the record, `KNVNRVLSAEALKPGMLLTGTVSSLEDHGYLVDIGVDGTRAFLPLLKAQEYIRQKNKGAKLKVGQYLNCIVEKVKGNGGVVSLSVGHSEVSTAIATEQQSWNLNNL` has protein production of not failed

Per the record, `MFPYFESVATASTEFHAIEPDPHMRRQAAEQANTQATPIHIESSPAEALPYYEDTFDVVITSMVFCTIPDIESAMSEITRVLKPGGELRFFEHVIDDGWRARLQSALAPLWKRLAGGCHLTRQTGTRLVADQSFDVVEIERLNLGITPIRPFVRGRLRKRSVSSTRLEHHHHHH` has protein production of failed

Per the record, `MTQGTARAQQNNIPVGIALMLAATVVFALQDGISRHLASSYNTYMVVMIRYWFFAAFVIALAARSRGGLRAATRTAQPGLQIFRGLLLASEICVAVFAFTVLGLIESMAVFICYPLLVAALSGPVLGEKVGWRRWAAIGVGLVGVLIILQPGMGVFNPWAVVPLISALMFALYGLLTRYAARQDSTATSFFWTGVTGAVAMTAVGLWFWEPMSAPDWRWMALLCVSGALGHWLLIKCYEMAEASAVQPFAYFHLMWTAILGITVFGETLRSAVIIGAALIVAAGLFTLWRERAQSRSR` has protein production of failed
